- Tested on: A. baumannii ATCC19606
- applied-conditions: MH broth pH 7.4, 16–20 h, 37 °C
Non-standard residues stand in square brackets, D forms with d. Residues, ends and D or L forms follow the SMILES beside them.
# MIC A. baumannii ATCC19606 per record follows
// units = µg/mL; emit number, no label

Below are worked cases with known answers.
molecule	experimental-result
CC(C)C[C@H](NC(=O)[C@@H](CC(C)C)NC(=O)[C@H](CC(C)C)NC(=O)[C@@H](CCCCN)NC(=O)[C@H](CC(C)C)NC(=O)[C@@H](CC(C)C)NC(=O)[C@H](CCCCN)NC(=O)[C@@H](CC(C)C)NC(=O)[C@H](CC(C)C)NC(=O)[C@@H](CCCCN)NC(=O)[C@@H](N)CCCCN)C(N)=O	32
CC(C)C[C@H](NC(=O)[C@H](CC(C)C)NC(=O)[C@H](CC(C)C)NC(=O)[C@H](CCCCN)NC(=O)[C@@H](CC(C)C)NC(=O)[C@H](CC(C)C)NC(=O)[C@H](CCCCN)NC(=O)[C@@H](CC(C)C)NC(=O)[C@@H](CC(C)C)NC(=O)[C@@H](CCCCN)NC(=O)[C@@H](N)CCCCN)C(N)=O	2
CC(C)C[C@@H](NC(=O)[C@@H](CC(C)C)NC(=O)[C@@H](CC(C)C)NC(=O)[C@H](CCCCN)NC(=O)[C@@H](CC(C)C)NC(=O)[C@@H](CC(C)C)NC(=O)[C@H](CCCCN)NC(=O)[C@@H](CC(C)C)NC(=O)[C@@H](CC(C)C)NC(=O)[C@H](CCCCN)NC(=O)[C@@H](N)CCCCN)C(N)=O	2

Attention now turns to another entry.
input: Look up and report measured MIC A. baumannii ATCC19606 (A. baumannii ATCC19606) for the following molecule: CC[C@H](C)[C@H](NC(=O)[C@@H](NC(=O)[C@@H](NC(=O)[C@@H](CCCCN)NC(=O)[C@@H](NC(=O)[C@@H](NC(=O)[C@@H](CCCCN)NC(=O)[C@@H](NC(=O)[C@@H](NC(=O)[C@@H](CCCCN)NC(=O)[C@H](N)CCCCN)[C@@H](C)CC)[C@@H](C)CC)[C@@H](C)CC)[C@@H](C)CC)[C@@H](C)CC)[C@@H](C)CC)C(N)=O [HP35, kkIIkIIkIII] (H-[dK][dK]II[dK]II[dK]III-NH2)
output: 8
